# EXPERIMENTAL SYSTEM: T1, human MSR1 extracellular domain expressed with a N-terminal nonahistidine tag (His9-hMSR1); R&D Systems, Cat … (human, UniProt P21757 77-451)
# T1 construct: extracellular domain; Bought reagent; also called His-hMSR1; 9xHis-hMSR1
# T1 sequence: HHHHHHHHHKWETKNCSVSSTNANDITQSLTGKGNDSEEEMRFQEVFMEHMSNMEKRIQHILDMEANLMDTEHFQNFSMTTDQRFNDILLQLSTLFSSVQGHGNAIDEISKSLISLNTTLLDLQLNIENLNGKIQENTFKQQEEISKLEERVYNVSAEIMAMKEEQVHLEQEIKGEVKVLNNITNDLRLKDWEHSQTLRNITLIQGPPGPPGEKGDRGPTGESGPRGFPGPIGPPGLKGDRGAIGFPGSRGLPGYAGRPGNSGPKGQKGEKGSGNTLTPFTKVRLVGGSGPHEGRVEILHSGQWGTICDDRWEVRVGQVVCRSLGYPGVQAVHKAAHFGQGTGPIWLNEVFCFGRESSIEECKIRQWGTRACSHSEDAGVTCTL
# EXPERIMENTAL DETAILS: SPR Biacore T200, 25 C, antibody captured by anti-human Fc, His9-hMSR1 injected;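 further: running buffer HBS-ET pH 7.4, rates from sensorgrams fitted to a 1:1 model including mass transport limitation, KD and half-life derived from the kinetic constants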
ASSAY READOUT: koff (s⁻¹)
Please give a number only; it is taken to be in s⁻¹.

Sample H1H27729P-N297Q-LP1 (antibody, human IgG1, V domains shown, LXR agonist linker-payload LP1 clicked to azido-PEG3-amine on Q295 and Q297 (EU) of the heavy chain constant region, antibody-drug conjugate; human IgG1 Fc with N297Q (EU); also called H1H27729P-LP1) VH: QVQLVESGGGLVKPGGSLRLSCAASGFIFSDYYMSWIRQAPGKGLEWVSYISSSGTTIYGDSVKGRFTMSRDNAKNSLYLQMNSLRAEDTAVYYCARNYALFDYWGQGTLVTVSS VL: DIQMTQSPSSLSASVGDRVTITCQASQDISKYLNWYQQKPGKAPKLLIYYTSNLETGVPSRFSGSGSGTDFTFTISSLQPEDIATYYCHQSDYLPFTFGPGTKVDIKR — what was its koff?
0.000718

Please look up its koff: H1H27734P-N297Q (antibody, human IgG1, V domains shown, human IgG1 Fc with N297Q (EU)) VH: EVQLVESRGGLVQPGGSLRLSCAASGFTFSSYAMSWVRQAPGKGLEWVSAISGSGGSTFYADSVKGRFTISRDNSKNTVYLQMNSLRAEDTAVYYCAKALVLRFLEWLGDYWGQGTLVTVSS VL: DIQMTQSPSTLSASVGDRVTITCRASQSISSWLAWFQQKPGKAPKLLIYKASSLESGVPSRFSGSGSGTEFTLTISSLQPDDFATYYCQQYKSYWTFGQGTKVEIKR
0.000596
